A short record of pKi observed with JAK2 (Homo sapiens) follows.
Sequence (O60674 whole entry): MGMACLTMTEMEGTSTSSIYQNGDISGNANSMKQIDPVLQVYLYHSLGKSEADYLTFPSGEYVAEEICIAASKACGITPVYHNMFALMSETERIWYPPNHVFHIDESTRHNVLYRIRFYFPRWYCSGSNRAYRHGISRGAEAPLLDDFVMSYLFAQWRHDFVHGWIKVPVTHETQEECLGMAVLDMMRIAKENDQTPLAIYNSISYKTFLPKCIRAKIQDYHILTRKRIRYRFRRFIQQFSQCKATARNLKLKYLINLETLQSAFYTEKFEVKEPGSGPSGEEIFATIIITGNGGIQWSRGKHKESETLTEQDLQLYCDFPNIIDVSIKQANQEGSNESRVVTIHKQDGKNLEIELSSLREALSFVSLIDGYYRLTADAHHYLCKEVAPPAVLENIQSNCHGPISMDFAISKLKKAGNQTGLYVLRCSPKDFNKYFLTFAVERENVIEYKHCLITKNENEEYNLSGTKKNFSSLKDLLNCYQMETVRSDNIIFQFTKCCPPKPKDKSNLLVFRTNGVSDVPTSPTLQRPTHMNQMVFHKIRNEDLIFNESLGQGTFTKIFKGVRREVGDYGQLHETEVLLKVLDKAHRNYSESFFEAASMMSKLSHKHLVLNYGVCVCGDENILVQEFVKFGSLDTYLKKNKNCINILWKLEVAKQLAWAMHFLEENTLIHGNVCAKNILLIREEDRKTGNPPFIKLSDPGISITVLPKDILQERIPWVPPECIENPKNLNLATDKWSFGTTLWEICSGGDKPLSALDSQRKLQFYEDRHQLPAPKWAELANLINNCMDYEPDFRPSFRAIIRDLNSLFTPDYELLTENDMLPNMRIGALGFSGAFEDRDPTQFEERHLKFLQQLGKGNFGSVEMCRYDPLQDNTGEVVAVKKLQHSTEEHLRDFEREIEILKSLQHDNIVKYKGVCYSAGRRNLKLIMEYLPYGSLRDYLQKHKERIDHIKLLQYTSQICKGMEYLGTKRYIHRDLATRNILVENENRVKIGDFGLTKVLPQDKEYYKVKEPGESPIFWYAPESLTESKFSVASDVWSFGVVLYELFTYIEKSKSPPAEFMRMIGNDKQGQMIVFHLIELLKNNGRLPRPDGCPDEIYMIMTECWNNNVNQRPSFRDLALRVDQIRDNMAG
pKi: −log10 of the molar value.
QUANTITY KIND: pKi

CHEM SMILES | QUANTITY KIND | REPORTED
COc1c(Nc2cc(C)[nH]n2)nc(Sc2ccc(S(=O)(=O)Cc3cccc([N+](=O)[O-])c3F)cc2F)nc1N1CCCCC1 | pKi | < 6.30
COc1c(Nc2cc(C)[nH]n2)nc(Sc2ccc(S(=O)(=O)Cc3cccc([N+](=O)[O-])c3F)cc2F)nc1N1CCOCC1 | pKi | < 6.82

====

Target: TNK1 (Homo sapiens)
Sequence (Q13470 1-666): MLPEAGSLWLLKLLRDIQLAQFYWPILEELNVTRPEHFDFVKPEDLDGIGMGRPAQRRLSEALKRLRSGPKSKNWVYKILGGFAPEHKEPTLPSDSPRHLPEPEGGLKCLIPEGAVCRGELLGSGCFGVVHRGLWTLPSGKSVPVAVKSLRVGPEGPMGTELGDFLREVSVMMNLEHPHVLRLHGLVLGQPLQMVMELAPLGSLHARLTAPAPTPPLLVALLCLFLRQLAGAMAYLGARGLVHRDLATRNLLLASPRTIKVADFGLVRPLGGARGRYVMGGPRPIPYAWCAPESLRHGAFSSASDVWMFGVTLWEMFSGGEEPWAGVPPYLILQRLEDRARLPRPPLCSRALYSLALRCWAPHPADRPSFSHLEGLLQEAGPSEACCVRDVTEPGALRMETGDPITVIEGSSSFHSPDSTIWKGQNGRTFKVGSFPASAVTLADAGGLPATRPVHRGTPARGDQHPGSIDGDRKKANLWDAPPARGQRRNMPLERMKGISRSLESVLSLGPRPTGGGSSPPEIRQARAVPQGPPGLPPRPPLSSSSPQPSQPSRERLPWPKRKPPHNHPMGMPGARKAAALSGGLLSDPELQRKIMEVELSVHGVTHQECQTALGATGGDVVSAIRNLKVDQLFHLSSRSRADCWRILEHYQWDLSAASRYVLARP
QUANTITY KIND: Ki (nM)

CHEM SMILES | REPORTED
COc1c(Nc2cc(C)[nH]n2)nc(Sc2ccc(S(=O)(=O)Cc3cccc([N+](=O)[O-])c3F)cc2F)nc1N1CCCCC1 | 6.04
COc1c(Nc2cc(C)[nH]n2)nc(Sc2ccc(S(=O)(=O)Cc3cccc([N+](=O)[O-])c3F)cc2F)nc1N1CCOCC1 | 1.38
